- System: OVCAR-8
- TEST DESCRIPTION: NCI tumour cell line growth inhibition, 48 h
The source made the active and inactive calls. Cut-off read from the data, not from the text of the source: active = GI50 up to about 1.1 µM and inactive = higher. Square brackets hold non-standard residues; d marks the D form. Peptide text beside a SMILES is read from it. * marks the point of attachment. X26 = COC1=CC(=O)N(C(=O)[C@@H](O*)C(C)C)[C@H]1Cc1ccccc1; Bn2Val = CC(C)[C@@H](C(=O)*)N(Cc1ccccc1)Cc1ccccc1; NMeV = CN[C@H](C(=O)O)C(C)C; dNMeA = CN[C@H](C)C(=O)O
Reported GI50 values follow for various compounds
EXPERIMENTAL ENDPOINT: GI50

[[record]]
compound = "CCCCOc1ccc(OCCCCCCCCCC[N+](C)(C)C)cc1"
experimental_endpoint = "GI50"
endpoint_result = "3.66 µM (inactive)"

[[record]]
compound = "COC1C=COC2(C)Oc3c(C)c(O)c4c(O)c(c(C5SCCS5)c(O)c4c3C2=O)NC(=O)C(C)=C/C=C\\C(C)C2OC(C)(C)OC(C2C)C(C)C(OC(C)=O)C1C (centres undefined)"
experimental_endpoint = "GI50"
endpoint_result = "5.15 µM (inactive)"

[[record]]
compound = "N#C/C(=C\\NC(=S)c1ccncc1)c1nc2ccccc2s1"
experimental_endpoint = "GI50"
endpoint_result = "> 100 µM (inactive)"

[[record]]
compound = "COC1=CC(=O)N(C(=O)[C@@H](OC(=O)[C@@H](C)N(C)C(=O)[C@@H]2CCCN2C(=O)[C@H](C(C)C)N(C)C(=O)[C@@H](NC(=O)[C@H](C(C)C)N(Cc2ccccc2)Cc2ccccc2)C(C)C)C(C)C)[C@H]1Cc1ccccc1 (Bn2Val-V[NMeV]P[dNMeA]-X26)"
experimental_endpoint = "GI50"
endpoint_result = "> 100 µM (inactive)"

